- System under test: T1, IL-2 receptor βγ complex (human, UniProt P14784 27-551; P31785 23-369)
- T1 sequence (looked up) 1: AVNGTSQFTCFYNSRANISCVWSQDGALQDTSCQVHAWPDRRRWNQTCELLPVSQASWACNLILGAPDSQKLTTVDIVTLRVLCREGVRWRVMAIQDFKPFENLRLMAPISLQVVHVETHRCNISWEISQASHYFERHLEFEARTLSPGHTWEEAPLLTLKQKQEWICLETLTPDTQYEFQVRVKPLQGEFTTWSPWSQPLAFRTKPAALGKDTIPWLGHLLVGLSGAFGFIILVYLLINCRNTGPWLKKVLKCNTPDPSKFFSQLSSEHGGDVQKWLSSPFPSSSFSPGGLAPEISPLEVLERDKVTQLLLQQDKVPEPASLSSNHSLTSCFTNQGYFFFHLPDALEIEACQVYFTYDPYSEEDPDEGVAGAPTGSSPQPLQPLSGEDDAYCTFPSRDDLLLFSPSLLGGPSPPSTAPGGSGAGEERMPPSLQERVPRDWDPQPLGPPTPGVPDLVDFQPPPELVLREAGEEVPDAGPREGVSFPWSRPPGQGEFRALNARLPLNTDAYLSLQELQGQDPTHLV
- T1 sequence (looked up) 2: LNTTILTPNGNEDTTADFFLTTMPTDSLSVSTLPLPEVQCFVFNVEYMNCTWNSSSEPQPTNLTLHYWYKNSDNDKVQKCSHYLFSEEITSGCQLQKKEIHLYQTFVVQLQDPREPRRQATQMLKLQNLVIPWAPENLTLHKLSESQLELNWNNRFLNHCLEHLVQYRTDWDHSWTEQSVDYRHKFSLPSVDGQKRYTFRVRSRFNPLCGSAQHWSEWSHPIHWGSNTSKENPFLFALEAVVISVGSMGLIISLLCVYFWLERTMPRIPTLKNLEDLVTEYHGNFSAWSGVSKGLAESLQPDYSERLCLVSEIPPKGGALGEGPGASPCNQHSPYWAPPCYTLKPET
- Assay protocol: cell-based or functional assay
Bridges are numbered along the chain shown (N, C = ends). Primed or numbered codes have the meaning given here. [ ]: non-standard residue; d: D form. Ygp(4) = Tyr with amino-capped PEG8 (O-(8x polyethylene glycol-amino)-tyrosine); Yn3(4) = Tyr with azide-capped PEG9 (O-(9x polyethylene glycol-azido)-tyrosine); Ygp = O-(8x polyethylene glycol-amino)-tyrosine (Tyr, amino-capped PEG8); Yn3 = O-(9x polyethylene glycol-azido)-tyrosine (Tyr, azide-capped PEG9); PEG4′ = 4x polyethylene glycol; PEG9′ = 9x polyethylene glycol; hSer = N[C@@H](CCO)C(=O)O; Nle = CCCC[C@H](N)C(=O)O
Observation type: Average EC50, pSTAT5 Assay (T cells) (nM)
// return numeric value only (unit: nM, not printed)

Some solved cases for reference:
- Binder: "CMP-164 (ligand, bridge N-23; not fully specified (bridges); ends not checked; also: sequence of the cleavable peptide in the bridge not given here) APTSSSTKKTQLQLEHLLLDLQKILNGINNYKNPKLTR[Nle]L[hSer][Yn3]KF[Ygp][Nle]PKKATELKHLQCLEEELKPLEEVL[hSer]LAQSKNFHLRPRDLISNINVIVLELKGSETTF[hSer]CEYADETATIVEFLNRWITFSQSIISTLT"
  Observation type: "Average EC50, pSTAT5 Assay (T cells)"
  Value observed: 31.4
- Binder: "CMP-166, MMP2 cleaved molecule (ligand, ends and bridges not checked; also: MMP2 cleaved, cleavage site and linker fragments on N-terminus and Lys23 side chain not given here) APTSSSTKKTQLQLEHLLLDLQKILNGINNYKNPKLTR[Nle]L[hSer][Yn3]KF[Ygp][Nle]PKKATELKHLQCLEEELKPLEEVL[hSer]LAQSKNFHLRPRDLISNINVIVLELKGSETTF[hSer]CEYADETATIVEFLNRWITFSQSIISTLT"
  Observation type: "Average EC50, pSTAT5 Assay (T cells)"
  Value observed: 4.36
- Binder: "CMP-300 (ligand, lactam N-31; ends not checked) GPLGLAG[PEG4′]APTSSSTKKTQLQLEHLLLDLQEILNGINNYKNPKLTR[Nle]L[hSer][Yn3(4)]KF[Ygp(4)][Nle]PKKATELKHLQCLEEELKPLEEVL[hSer]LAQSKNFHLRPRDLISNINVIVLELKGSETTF[hSer]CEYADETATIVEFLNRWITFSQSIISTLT"
  Observation type: "Average EC50, pSTAT5 Assay (T cells)"
  Value observed: 94.7

Next item in the queue.
Per the record, CMP-301 (ligand, lactam N-31; ends not checked) GPLGLAG[PEG9′]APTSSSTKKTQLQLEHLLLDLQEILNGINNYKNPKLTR[Nle]L[hSer][Yn3(4)]KF[Ygp(4)][Nle]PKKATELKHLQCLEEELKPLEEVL[hSer]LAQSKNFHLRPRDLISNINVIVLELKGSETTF[hSer]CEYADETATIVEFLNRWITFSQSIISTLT has Average EC50, pSTAT5 Assay (T cells) of 180
